- method notes: NCI Yeast Anticancer Drug Screen. Data for the sgs1 mgt1 strain (AID 161);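 further: 0% = growth of cultures given vehicle only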
- experimental conditions: S. cerevisiae sgs1 mgt1 strain, at 5.0 µM (retest, dose inferred, filed as 0.5), active compounds read high
About 79,000 compounds went through this panel and 15% of them were active in at least one assay; those are over-represented in the sample as a whole.
Answer each item with its documented growth inhibition.
Answer format: numeric, % implied, no suffix.

# growth inhibition lookup, item Cn1c2nc3ccccc3c-2nc2ccccc21
39

Would you kindly repeat that for S=c1cn[nH]c2ccc(Br)cc12 ?
-58

Entry to check: CCN(CC)CCNC(=O)c1nn(-c2ccc(Cl)cc2)c2c1CCc1cc(OC)ccc1-2
15

Input CCC(=O)N(c1ccccc1)C(C)CN1CCC(O)(c2cccc(C(F)(F)F)c2)CC1 (stereo unspecified)
-4

# repeat for O=Nc1ccc(Nc2ccccc2)cc1
-5

Now try CCCCOC(=O)CSSCC(=O)OCCCC .
9
